# tested system: human TRPV1 receptor (hTRPV1) (Homo sapiens (Human), UniProt Q8NER1)
# Sequence (Q8NER1 whole entry): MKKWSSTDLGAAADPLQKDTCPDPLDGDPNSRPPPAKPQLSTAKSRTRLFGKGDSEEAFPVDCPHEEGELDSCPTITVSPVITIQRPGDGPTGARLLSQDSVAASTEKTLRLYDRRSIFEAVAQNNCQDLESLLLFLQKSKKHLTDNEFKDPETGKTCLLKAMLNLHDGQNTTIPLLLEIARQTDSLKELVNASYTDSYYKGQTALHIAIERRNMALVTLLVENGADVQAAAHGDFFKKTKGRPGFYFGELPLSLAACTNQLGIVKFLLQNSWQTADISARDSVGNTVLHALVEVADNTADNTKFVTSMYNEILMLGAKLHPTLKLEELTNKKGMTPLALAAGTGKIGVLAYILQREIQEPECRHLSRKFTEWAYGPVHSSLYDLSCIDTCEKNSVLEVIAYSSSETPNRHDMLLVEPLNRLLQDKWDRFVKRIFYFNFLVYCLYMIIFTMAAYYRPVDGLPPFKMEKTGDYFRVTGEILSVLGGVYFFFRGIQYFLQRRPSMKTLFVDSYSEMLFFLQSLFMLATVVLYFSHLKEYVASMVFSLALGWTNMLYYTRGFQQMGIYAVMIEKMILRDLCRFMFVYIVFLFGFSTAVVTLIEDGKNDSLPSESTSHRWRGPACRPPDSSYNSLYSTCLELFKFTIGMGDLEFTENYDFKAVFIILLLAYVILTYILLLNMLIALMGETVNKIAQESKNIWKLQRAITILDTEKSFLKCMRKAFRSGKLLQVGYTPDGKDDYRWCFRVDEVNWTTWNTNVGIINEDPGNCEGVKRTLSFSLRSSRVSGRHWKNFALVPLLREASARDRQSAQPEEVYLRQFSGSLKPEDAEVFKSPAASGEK
# procedure details: Acid activation assay (pH 5.0, FLIPR intracellular Ca2+)
# Assay type: cell-based
# experimental parameters: Table 1; 37.5 μM antagonist, percentage of the maximal pH 5.0-induced response remaining; read-out: hTRPV1 H+ (max % remain)
measure: remaining activity at 37.5 µM (%)
One number for each entry, in %.

Example compounds with recorded remaining activity at 37.5 µM:
Exam item: Reported remaining activity at 37.5 µM, compound O=C(Nc1cccc2[nH]ncc12)N[C@H]1CC[C@@H](c2ccccn2)C1 (relative stereo) : ____
Marked response: 53

Exam item: Same thing, different compound: `O=C(Nc1cccc2[nH]ccc12)N[C@@H]1CC[C@H](c2ccccc2)C1`
Marked response: 42

Exam item: Same thing, different compound: `O=C(Nc1cccc2c1C[C@H](O)C2)N[C@H]1CC[C@H](c2ccccc2)C1`
Marked response: 78

Further cases:
Exam item: Reported remaining activity at 37.5 µM, compound `O=C(Nc1cccc2[nH]ncc12)N[C@H]1CC[C@@H](C2CCCCC2)C1` : ____
Marked response: 68

====

# tested system: human TRPV1 receptor (hTRPV1) (Homo sapiens (Human))
# procedure details: Capsaicin activation assay (FLIPR intracellular Ca2+)
# Type: cell-based
# experimental parameters: Table 1; inhibition of capsaicin-induced intracellular Ca2+ increase, HEK293 cells expressing human TRPV1; read-out: hTRPV1 cap IC50
So I've got a bunch of compounds here, and I need their IC50 values.
Give bare numbers, in nM.

Exam item: Reported IC50, compound O=C(Nc1cccc2c1C[C@@H](O)CC2)N[C@@H]1CC[C@@H](c2ccccc2)C1 [Compound F, reference compound] : ____
Marked response: 5

Exam item: Same thing, different compound: O=C(Nc1cccc2[nH]ncc12)N[C@H]1C=C[C@@H](c2ccccc2)C1 [Example 63]
Marked response: 122

State the recorded IC50 for every item in the following list.
1. O=C(Nc1cccc2c1CCC2)N[C@H]1CC[C@@H](c2ccccc2)C1 [Example 124]
2. CSc1ccc([C@H]2CCC(NC(=O)Nc3cccc4[nH]ncc34)C2)cc1 (stereo partly drawn) [Example 46]
3. O=C(Nc1cccc2c1C[C@H](O)CC2)N[C@@H]1CC[C@H](c2ccccc2)C1 [Compound G, reference compound]
4. COc1ccc(C2CCC(NC(=O)Nc3cccc4[nH]ncc34)C2)cc1 (stereo not drawn) [Example 40]
5. CN1CCOc2ccc(NC(=O)N[C@@H]3CC[C@H](c4ccccc4)C3)cc21 [Example 145]

Marked response:
1: 6480; 2: 87; 3: 4; 4: 78; 5: 614

State the recorded IC50 for every item in the following list.
1. C[C@H]1Oc2c(NC(=O)N[C@H]3CC[C@H](c4ccccc4)C3)cccc2NC1=O [Example 10]
2. CCc1cc2c(NC(=O)N[C@@H]3CC[C@H](c4ccccc4)C3)c(F)ccc2cn1 [Example 140]

Marked response:
84
9600

State the recorded IC50 for every item in the following list.
1. Cn1ncc2c(NC(=O)N[C@H]3CC[C@@H](c4ccccc4)C3)cccc21 [Example 25]
2. Cn1ncc2c(NC(=O)N[C@H]3CC[C@@H](c4ccccc4F)C3)cccc21 [Example 104]
3. Cn1ncc2c(NC(=O)N[C@H]3CC[C@H](c4ccccc4)C3)cccc21 [Example 11]
4. O=C(Nc1cccc2[nH]ncc12)N[C@H]1CC[C@@H](C2CCCCC2)C1 [Example 49]
5. C[C@H]1Oc2c(NC(=O)N[C@H]3CC[C@@H](c4ccccc4)C3)cccc2NC1=O [Example 24]
6. Cn1c(=O)ccc2c(NC(=O)N[C@@H]3CC[C@@H](c4cccc(F)c4)C3)cccc21 [Example 78]
7. CN1C(=O)CCc2ccc(NC(=O)N[C@H]3CC[C@@H](c4ccccc4)C3)cc21 [Example 105]

Marked response:
628
97
84
66
85
6.5
956

State the recorded IC50 for every item in the following list.
1. O=C(Nc1cccc2c1C[C@@H](O)CC2)N[C@H]1CC[C@H](c2ccccc2)C1 [Compound D, reference compound]
2. O=C(Nc1cccc2c1C[C@H](O)CC2)N[C@@H]1CC[C@@H](c2ccccc2)C1 [Compound E, reference compound]

Marked response:
[13, 5]

State the recorded IC50 for every item in the following list.
1. O=C(Nc1cccc2c1C[C@H](O)C2)N[C@H]1C[C@@H](c2ccccc2)C1 [Example 60]
2. O=C(Nc1cccc2[nH]ncc12)N[C@@H]1CC[C@H](c2ccccc2F)C1 [Example 61]
3. Cc1cc2c(NC(=O)N[C@@H]3CC[C@@H](c4nc(C)cs4)C3)c(F)ccc2cn1 [Example 133]
4. Cc1cc2c(NC(=O)N[C@H]3CC[C@@H](c4ccccc4)C3)c(F)ccc2cn1 [Example 27]

Marked response:
331
32
507
7

State the recorded IC50 for every item in the following list.
1. O=C(Nc1cccc2c1C[C@@H](O)C2)N[C@@H]1CC[C@@H](c2ccccc2F)C1 [Example 88]
2. O=C(Nc1cccc2[nH]ncc12)N[C@H]1CCC[C@H](c2ccc(C(F)(F)F)cc2)C1 [Example 32]
3. O=C(Nc1cccc2c1C[C@@H](O)C2)N[C@@H]1CC[C@@H](c2ccccc2)C1 [Example 16]
4. C[C@@]1(c2ccccc2)CC[C@H](NC(=O)Nc2cccc3[nH]ncc23)C1 [Example 72]
5. CN1C(=O)CCc2c(NC(=O)N[C@H]3CC[C@@H](c4ccccc4)C3)cccc21 [Example 95]

Marked response:
1: 20; 2: 795; 3: 80; 4: 80; 5: 58

State the recorded IC50 for every item in the following list.
1. O=C(Nc1cccc2[nH]ncc12)N[C@@H]1CC[C@@H](c2cccc(F)c2)C1 [Example 68]
2. O=C(Nc1cccc2[nH]ncc12)N[C@H]1C[C@@H](c2ccccc2)[C@@H](O)[C@H]1O [Example 52]
3. O=C(Nc1cccc2c1C[C@H](O)C2)N[C@H]1CC[C@H](c2ccccc2)C1 [Example 8]
4. O=C(Nc1cccc2[nH]ncc12)N[C@@H]1CC[C@@H](c2ccccc2F)C1 [Example 66]

Marked response:
48
22400
123
8.2

====

# tested system: human TRPV1 receptor (hTRPV1) (Homo sapiens (Human), UniProt Q8NER1)
# procedure details: Capsaicin activation assay (FLIPR intracellular Ca2+)
# Format: cell-based
# experimental parameters: Table 1; inhibition of capsaicin-induced intracellular Ca2+ increase, HEK293 cells expressing human TRPV1; read-out: hTRPV1 cap IC50
# Experimental: Dulbecco's modified Eagle medium (D-MEM) (with 4.5 mg/mL glucose) and fetal bovine serum were obtained from Hyclone Laboratories, Inc. (Logan, Utah). […] The functional activity of compounds at the TRPV1 receptor was determined by measurement of intracellular Ca^2+ levels ([Ca^2+]i) using the Fluorescence Imaging Plate Reader (FLIPR)^TETRA®. […] Fluorescence readings were made at 1 to 5 second intervals over the course of the experimental run. […]
measure: IC50

Exam item: Reported IC50, molecule CN1C(=O)CCc2ccc(NC(=O)N[C@H]3CC[C@H](c4ccccc4)C3)cc21 [Example 106] : ____
Marked response: > 37.5 µM

Exam item: Same thing, different molecule: CN1C(=O)CCc2ccc(NC(=O)N[C@@H]3CC[C@@H](c4cccc(F)c4)C3)cc21 [Example 107]
Marked response: > 37.5 µM

State the recorded IC50 for every item in the following list.
1. O=C(Nc1cccc2[nH]ncc12)N[C@H]1CC[C@@H](c2cccc(F)c2)C1 [Example 69]
2. Cc1nc(N)cc2c(NC(=O)N[C@@H]3CC[C@H](c4ccccc4)C3)cccc12 [Example 141]

Marked response:
1: 0.012 µM; 2: > 37.5 µM

====

# tested system: human TRPV1 receptor (hTRPV1) (Homo sapiens (Human))
# procedure details: Capsaicin activation assay (FLIPR intracellular Ca2+)
# Type: cell-based
# experimental parameters: Table 1; inhibition of capsaicin-induced intracellular Ca2+ increase, HEK293 cells expressing human TRPV1; read-out: hTRPV1 cap IC50
Could you please classify the records by IC50 using these ranges: lo: < 10 nM; mid: ≥ 10 nM and < 90 nM; hi: ≥ 90 nM

Exam item: assign `Cn1c(=O)ccc2c(NC(=O)N[C@@H]3CC[C@@H](c4ccccc4F)C3)cccc21` to the correct category.
Marked response: lo

Further cases:
Exam item: assign `CN1C(=O)CCc2c(NC(=O)N[C@H]3CC[C@@H](c4cccc(F)c4)C3)cccc21` to the correct category.
Marked response: mid

Exam item: Same thing, different molecule: `O=C(Nc1cccc2c1C[C@@H](O)C2)N[C@H]1CC[C@H](c2ccccc2)C1`
Marked response: hi

Exam item: Same thing, different molecule: `C[C@H]1Oc2c(NC(=O)N[C@@H]3CC[C@@H](c4ccccc4)C3)cccc2NC1=O`
Marked response: hi

Exam item: Same thing, different molecule: `O=C(Nc1cccc2c1CCCC2)N[C@@H]1CC[C@H](c2ccccc2)C1`
Marked response: hi

Exam item: Same thing, different molecule: `Cc1cc2c(NC(=O)N[C@H]3CC[C@H](c4cccc(F)c4)C3)c(F)ccc2cn1`
Marked response: lo

Exam item: Same thing, different molecule: `O=C(Nc1cccc2[nH]ncc12)N[C@@H]1CCC[C@H](c2ccccc2)C1`
Marked response: mid

Exam item: Same thing, different molecule: `O=C(Nc1ccc2c(c1)NC(=O)N(CCO)C2)N[C@H]1CC[C@H](c2ccccc2)C1`
Marked response: hi

Exam item: Same thing, different molecule: `Cc1cc2c(NC(=O)N[C@H]3CC[C@H](c4ccccc4F)C3)c(F)ccc2cn1`
Marked response: lo
